Data provenance is paper PMC8223195.

System: HL-60 (acute myeloid leukemia)
Experiment: IncuCyte real-time proliferation assay, HL-60
Assay type: cell-based
Conditions: HL-60, 72 h; * mean of two independent experiments ± SEM
The compounds listed here are annotated with their pIC50.
// scale note: pIC50 = -log10(conc_M); give the bare number

Example entries begin here.
Cc1ccc(C(=O)C2Sc3nnc(-n4nc(C)cc4C)n3NC2c2ccc(C)cc2)cc1 (racemic) [Compound 5b] | 4.29
Cc1ccc(C(=O)C2Sc3nnc(-n4nc(C)cc4C)n3NC2c2ccco2)cc1 (racemic) [Compound 5r] | 4.27

Please find the next compound below.
[ask] Looking for the measured pIC50 of Cc1ccc(C(=O)C2Sc3nnc(-n4nc(C)cc4C)n3NC2c2cc(F)c(F)c(F)c2)cc1 (racemic) [Compound 5j] , can you help?
[reply] 4.89

====

Tested on: NCI-H460 (lung carcinoma)
Assay: IncuCyte real-time proliferation assay, NCI-H460
Type: cell-based
Settings: NCI-H460, 72 h; * mean of two independent experiments ± SEM
assay.metric: IC50

Cc1ccc(C(=O)C2Sc3nnc(-n4nc(C)cc4C)n3NC2c2cc(F)c(F)c(F)c2)cc1 (racemic) [Compound 5j] | 56 µM
COc1ccc(C2=C(C(=O)c3ccc([N+](=O)[O-])cc3)Sc3nnc(-n4nc(C)cc4C)n3N2)c(OC)c1 [Compound 5p] | > 100 µM
COc1ccc(C(=O)C2Sc3nnc(-n4nc(C)cc4C)n3NC2c2ccco2)cc1 (racemic) [Compound 5q] | 2.5 µM

[ask] Any idea what IC50 was measured for Cc1cc(C)n(-c2nnc3n2NC(c2ccco2)C(C(=O)c2ccc([N+](=O)[O-])cc2)S3)n1 (racemic) [Compound 5t] ?
[reply] > 100 µM

====

System: K-562 (chronic myeloid leukemia)
Test: IncuCyte real-time proliferation assay, K-562
Type: cell-based
Details: K-562, 72 h; * mean of two independent experiments ± SEM
assay.metric: IC50 (µM)
Your answer should be a plain number; it is taken to be in µM.

Cc1ccc(C(=O)C2Sc3nnc(-n4nc(C)cc4C)n3NC2c2cc(F)c(F)c(F)c2)cc1 (racemic) [Compound 5j] | 3.4
Cc1ccc(C(=O)C2Sc3nnc(-n4nc(C)cc4C)n3NC2c2ccco2)cc1 (racemic) [Compound 5r] | 23.5
COc1ccc(C(=O)C2Sc3nnc(-n4nc(C)cc4C)n3NC2c2ccco2)cc1 (racemic) [Compound 5q] | 2.3

[ask] I am curious: what IC50 value has been reported for Cc1ccc(C(=O)C2Sc3nnc(-n4nc(C)cc4C)n3NC2c2ccc(C)cc2)cc1 (racemic) [Compound 5b] ?
[reply] 10.4

[ask] Further, for Cc1cc(C)n(-c2nnc3n2NC(c2ccco2)C(C(=O)c2ccc([N+](=O)[O-])cc2)S3)n1 (racemic) [Compound 5t] ?
[reply] 79.3

[ask] And for COc1ccc(C(=O)C2Sc3nnc(-n4nc(C)cc4C)n3NC2c2ccccc2Cl)cc1 (racemic) [Compound 5n] ?
[reply] 53.2

====

Each entry below carries its measured CC50, system: HEL 299 cells.

Here are 5 compounds together with their reported answers.
Cc1cc(C)n(-c2nnc3n2NC(c2ccc([N+](=O)[O-])cc2)C(C(=O)c2ccc([N+](=O)[O-])cc2)S3)n1 (racemic) | > 100 µM
Cc1ccc(C(=O)C2Sc3nnc(-n4nc(C)cc4C)n3NC2c2ccccc2Br)cc1 (racemic) | > 100 µM
Cc1ccc(C(=O)C2Sc3nnc(-n4nc(C)cc4C)n3NC2c2ccc(C)cc2)cc1 (racemic) | 81.5 µM
COc1ccc(C(=O)C2Sc3nnc(-n4nc(C)cc4C)n3NC2c2ccco2)cc1 (racemic) | < 0.8 µM
Cc1cc(C)n(-c2nnc3n2NC(c2ccccc2Br)C(C(=O)c2ccc(F)cc2)S3)n1 (racemic) | > 100 µM

Kindly review the next compound as well.
[ask] # get_value(readout='CC50', item= Cc1cc(C)n(-c2nnc3n2NC(c2ccco2)C(C(=O)c2ccc([N+](=O)[O-])cc2)S3)n1 (racemic) )
[reply] > 100 µM
